All figures here come from patent US20200048358A1.

Reported EC50 binding ratio values for a set of binders
# Study system: T1, CTLA4-Fc (Fitzgerald, #30R-CD152) (human, UniProt P16410 38-152, biotinylated where used as soluble reagent in the inhibition ELISAs)
# T1 construct: Bought reagent; also called human CTLA-4 (Fitzgerald); biotinylated-CTLA4
# T1 sequence (P16410 38-152 limits assumed): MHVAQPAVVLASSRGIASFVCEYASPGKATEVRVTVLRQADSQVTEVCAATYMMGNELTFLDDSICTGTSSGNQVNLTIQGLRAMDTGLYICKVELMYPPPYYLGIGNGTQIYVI
# Protocol summary: binding ELISA; ratio [EC50 for CD28-Fc]/[EC50 for CTLA4-Fc]

[[record]]
binder = "CD86 mutant 900 (ligand, Variant of the soluble extracellular domain of human CD86) LKIQAYFNETADLPCQFANSQNQSLSELVVFWQDQENLVLNEVYLGKEKFDSVDSKYMGRTSFDSDSWTLRLHNLQIKDKGIYQCVIHHKKPSGLVKIHEMNSELSVLA"
observed_measurement = 3.5

[[record]]
binder = "CD86 mutant 910 (ligand, Variant of the soluble extracellular domain of human CD86) LKIQAYFNETADLPCQFANSQNQSLSELVVFWQDQENLVLNEVYLGKEKFDSVDSKYMGRTSFDSDSWTLRLHNLQIKDKGIYQCIIHHKKPTGMVKIHEMNSELSVLA"
observed_measurement = 7.7

[[record]]
binder = "CD86 mutant 908 (ligand, Variant of the soluble extracellular domain of human CD86) LKIQAYFNETADLPCQFANSQNQSLSELVVFWQDQENLVLNEVYLGKEKFDSVHSKYMGRTSFDSDSWTLRLHNLQIKDKGIYQCIIHHKKPTGMVKIHEMNSELSVLA"
observed_measurement = 6.2


Please turn your attention to the following entry.
Problem: I have this binder here, CD86 mutant 938 (ligand, Variant of the soluble extracellular domain of human CD86) LKIQAYFNETADLPCQFANSQNQSLSELVVFWQDQENLILNEVYLGKEKFDSVHSKYMGRTSFDSDSWTLRLHNLQIKDKGIYQCIIHHKKPTGMVKIHQMNSELSVLA , and I need its recorded EC50 binding ratio.
Result: 2
